TEST SYSTEM: Cathepsin D (Bos taurus)
ASSAY EXPLANATION: Inhibition of conversion of hemoglobin by commercially purchased bovine spleen cathepsin D.
ENDPOINT NAME: IC50 (nM)

CC[C@H](C)[C@H](NC(=O)OC(C)(C)C)C(=O)N[C@H](C(=O)N[C@@H](CC(C)C)C(O)CC(=O)N[C@@H](CC(N)=O)C(=O)NC[C@H](C)O)[C@@H](C)CC (stereo partly drawn)
1700

I. CC[C@H](C)[C@H](NC(=O)OC(C)(C)C)C(=O)N[C@H](C(=O)N[C@@H](CC(C)C)C(O)CC(=O)NCC1CCCCC1)[C@@H](C)CC (stereo partly drawn)
II. CCOC(=O)C[C@H](O)[C@H](CC(C)C)NC(=O)[C@@H](NC(=O)[C@@H](NC(=O)OC(C)(C)C)[C@H](C)CC)[C@@H](C)CC
[ask] Min IC50? I | II Reply with the label of the item you choose.
[reply] II

* * *

TEST SYSTEM: Cathepsin D (Bos taurus, UniProt P80209)
Sequence (P80209 whole entry): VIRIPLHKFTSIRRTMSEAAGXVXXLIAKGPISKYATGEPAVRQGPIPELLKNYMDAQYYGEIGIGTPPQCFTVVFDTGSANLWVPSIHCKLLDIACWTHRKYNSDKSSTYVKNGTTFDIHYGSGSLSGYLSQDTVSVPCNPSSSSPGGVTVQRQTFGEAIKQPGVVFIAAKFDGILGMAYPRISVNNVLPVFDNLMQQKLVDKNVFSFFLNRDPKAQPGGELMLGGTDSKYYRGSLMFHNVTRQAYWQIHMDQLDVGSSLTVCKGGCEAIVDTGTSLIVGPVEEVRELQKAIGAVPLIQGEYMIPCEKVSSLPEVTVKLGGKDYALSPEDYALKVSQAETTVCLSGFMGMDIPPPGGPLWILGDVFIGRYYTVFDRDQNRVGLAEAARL
ASSAY EXPLANATION: Inhibition of conversion of hemoglobin by commercially purchased bovine spleen cathepsin D.
pIC50: −log10 of the molar value.
ENDPOINT NAME: pIC50

CCOC(=O)CC(O)C(CC(C)C)NC(=O)C(NC(=O)C(NC(=O)OC(C)(C)C)C(C)(C)C)C(C)CC (stereo unspecified)
6.55

1. CCC(C)[C@H](NC(=O)[C@H](CC1CCCCC1)NC(=O)N1CCOCC1)C(=O)N[C@@H](Cc1ccc2ccccc2c1)[C@@H](O)[C@@H](O)CC(C)C (stereo partly specified)
2. CC[C@H](C)[C@H](NC(=O)[C@H](CC1CCCCC1)NC(=O)N(C)CCN(C)C)C(=O)N[C@@H](Cc1ccc2ccccc2c1)[C@@H](O)[C@@H](O)CC(C)C
[ask] Min pIC50? 1 | 2 Reply with the label of the item you choose.
[reply] 2

* * *

TEST SYSTEM: Cathepsin D (Bos taurus, UniProt P80209)
ASSAY EXPLANATION: Inhibition of conversion of hemoglobin by commercially purchased bovine spleen cathepsin D.
pIC50: −log10 of the molar value.
ENDPOINT NAME: pIC50

CC[C@H](C)[C@H](NC(=O)[C@H](CC(C)(C)C)NC(=O)OC(C)(C)C)C(=O)N[C@@H](CC(C)C)C(O)CC(=O)O (stereo partly specified)
6.82

P. CCC(C)[C@H](NC(=O)[C@H](CC1CCCCC1)NC(=O)N1CCN(C)CC1)C(=O)N[C@@H](Cc1ccc2ccccc2c1)[C@@H](O)[C@@H](O)CC(C)C (stereo partly specified)
Q. CC[C@H](C)[C@H](NC(=O)[C@H](CC1CCCCC1)NC(=O)OC(C)(C)C)C(=O)N[C@@H](Cc1c[nH]c2ccccc12)C(O)CC(=O)N[C@H](C(=O)O)C(C)C (stereo partly specified)
R. CC[C@H](C)[C@H](NC(=O)[C@H](CC1CCCCC1)NC(=O)OC(C)(C)C)C(=O)N[C@@H](Cc1c[nH]c2ccccc12)[C@@H](O)[C@@H](O)CC(C)C
[ask] Sort the compounds on pIC50; start with the lowest figure. Answer format: the labels, in the requested order.
[reply] P, Q, R
(P: 5.96, Q: 6.21, R: 6.68)

* * *

TEST SYSTEM: Cathepsin D (Bos taurus, UniProt P80209)
ASSAY EXPLANATION: Inhibition of conversion of hemoglobin by commercially purchased bovine spleen cathepsin D.
Numbered stars: 1 amine (or outer) side, 2 acyl side, 3 side chain; on linkers, the order of the positions; unused ones are H or OH. Square brackets hold non-standard residues; d marks the D form. Peptide text beside a SMILES is read from it. * marks the point of attachment. ξ: configuration not given here. Sta(3ξ) = CC(C)C[C@H](N[*:1])C(O)CC(=O)[*:2]; ξN = NC(=O)CC(N)C(=O)O; Boc = CC(C)(C)OC(=O)*; X1 = C[C@@H](O)CN*
ENDPOINT NAME: IC50 (nM)

The following compounds have reported results that may help.
CCC(C)[C@H](NC(=O)[C@@H](NC(=O)OC(C)(C)C)[C@@H](C)OC(C)(C)C)C(=O)N[C@@H](CC(C)C)C(O)CC(=O)O (stereo partly specified)
1300
CC[C@H](C)[C@H](NC(=O)OC(C)(C)C)C(=O)N[C@H](C(=O)N[C@@H](CC(C)C)C(O)CC(=O)NCC(C)C)[C@@H](C)CC (stereo partly specified)
65

1. CC[C@H](C)[C@H](NC(=O)OC(C)(C)C)C(=O)N[C@H](C(=O)N[C@@H](CC1CCCCC1)[C@@H](O)[C@@H](O)CC(C)C)[C@@H](C)CC
2. CC[C@H](C)[C@H](NC(=O)OC(C)(C)C)C(=O)N[C@H](C(=O)N[C@@H](CC(C)C)C(O)CC(=O)N[C@H](C(=O)NC(CC(N)=O)C(=O)NC[C@@H](C)O)C(C)C)[C@@H](C)CC (stereo partly specified) (Boc-II[Sta(3ξ)]V[ξN]-X1)
3. CC[C@@H](C)[C@H](NC(=O)[C@H](CC1CCCCC1)NC(=O)OC(C)(C)C)C(=O)N[C@@H](CC(C)C)[C@@H](O)CC(=O)NCCN1CCOCC1
4. CCOC(=O)CC(O)[C@H](CC(C)C)NC(=O)[C@@H](NC(=O)[C@@H](NC(=O)OC(C)(C)C)C1CCCCC1)[C@@H](C)CC (stereo partly specified)
[ask] Kindly order the items shown according to IC50, from the highest value down. Answer format: the labels, in the requested order.
[reply] 3, 2, 4, 1

* * *

TEST SYSTEM: Cathepsin D (Bos taurus)
ASSAY EXPLANATION: Inhibition of conversion of hemoglobin by commercially purchased bovine spleen cathepsin D.
pIC50: −log10 of the molar value.
ENDPOINT NAME: pIC50

The following compounds have reported results that may help.
CCOC(=O)CC(O)[C@H](CC(C)C)NC(=O)[C@@H](NC(=O)[C@H](CC(C)(C)C)NC(=O)OC(C)(C)C)[C@@H](C)CC (stereo partly drawn)
7.14
CC[C@H](C)[C@H](NC(=O)[C@H](CC1CCCCC1)NC(=O)OC(C)(C)C)C(=O)N[C@@H](CC(C)C)[C@@H](O)CC(=O)NCCN(C)C
6.52
CCC(C)[C@H](NC(=O)[C@@H](N)CC1CCCCC1)C(=O)N[C@@H](Cc1ccc2ccccc2c1)[C@@H](O)[C@@H](O)CC(C)C (stereo partly drawn)
5.60
CCOC(=O)CC(O)[C@H](CC(C)C)NC(=O)[C@@H](NC(=O)[C@H](CC1CCCCC1)NC(=O)OC(C)(C)C)[C@H](C)CC (stereo partly drawn)
7.24
CC[C@H](C)[C@H](NC(=O)[C@H](CC1CCCCC1)NC(=O)OC(C)(C)C)C(=O)N[C@@H](CC(C)C)[C@@H](O)CC(=O)NCCc1ccccn1
7.43
CCC(C)[C@H](NC(=O)OC(C)(C)C)C(=O)N[C@H](C(=O)N[C@@H](CC(C)C)C(O)CC(=O)NCCCCCO)C(C)CC (stereo partly drawn)
7.29
CC[C@H](C)[C@H](NC(=O)[C@@H](NC(=O)OC(C)(C)C)C1CCCCC1)C(=O)N[C@@H](CC(C)C)C(O)CC(=O)O (stereo partly drawn)
6.46
CCOC(=O)CCNC(=O)CC(O)[C@H](CC(C)C)NC(=O)[C@@H](NC(=O)[C@@H](NC(=O)OC(C)(C)C)C(C)CC)C(C)CC (stereo partly drawn)
7.22
CC[C@H](C)[C@H](NC(=O)[C@H](CC1CCCCC1)NC(=O)OC(C)(C)C)C(=O)N[C@@H](Cc1ccc2ccccc2c1)[C@@H](O)[C@@H](O)CC(C)C
7.20
CCOC(=O)C[C@@H](O)[C@H](CC(C)C)NC(=O)[C@@H](NC(=O)[C@@H](NC(=O)OC(C)(C)C)[C@@H](C)CC)[C@@H](C)CC
5.34

1. CCC(C)C(NC(=O)C(NC(=O)OC(C)(C)C)C(C)(C)C)C(=O)NC(CC(C)C)C(O)CC(=O)O (stereo not drawn)
2. CC[C@H](C)[C@H](NC(=O)[C@H](CC1CCCCC1)NC(C)=O)C(=O)N[C@@H](Cc1ccc2ccccc2c1)[C@@H](O)[C@@H](O)CC(C)C
[ask] Min pIC50? 1 | 2 Reply with the label of the item you choose.
[reply] 1

* * *

TEST SYSTEM: Cathepsin D (Bos taurus, UniProt P80209)
ASSAY EXPLANATION: Inhibition of conversion of hemoglobin by commercially purchased bovine spleen cathepsin D.
ENDPOINT NAME: IC50 (nM)

CCC(C)[C@H](NC(=O)[C@H](CC1CCCCC1)NC(=O)OC(C)(C)C)C(=O)N[C@@H](Cc1c[nH]c2ccccc12)C(O)CC(=O)O (some centres not stated)
12000
CC[C@@H](C)[C@H](NC(=O)OC(C)(C)C)C(=O)N[C@H](C(=O)N[C@@H](CC(C)C)C(O)CC(=O)NC(C)C)[C@H](C)CC (some centres not stated)
120
CCC(C)[C@H](NC(=O)OC(C)(C)C)C(=O)N[C@H](C(=O)N[C@@H](CC(C)C)C(O)CC(=O)O)C(C)CC (some centres not stated)
2600
CCOC(=O)CC(O)[C@H](CC(C)C)NC(=O)[C@@H](NC(=O)[C@@H](NC(=O)OC(C)(C)C)[C@@H](C)OC(C)(C)C)C(C)CC (some centres not stated)
470

I. CC[C@H](C)[C@H](NC(=O)[C@H](CC1CCCCC1)NC(=O)OC(C)(C)C)C(=O)N[C@@H](CC1CCCCC1)[C@@H](O)[C@@H](O)CC(C)C
II. CC[C@H](C)[C@H](NC(=O)[C@H](CC1CCCCC1)NC(=O)OC(C)(C)C)C(=O)N[C@@H](CC(C)C)C(O)CC(=O)O (some centres not stated)
III. CC[C@H](C)[C@H](NC(=O)[C@H](CC1CCCCC1)NC(=O)OC(C)(C)C)C(=O)N[C@@H](CC(C)C)[C@@H](O)CC(=O)NCC(C)C
[ask] Sort the compounds on IC50; start with the lowest figure. Answer format: the labels, in the requested order.
[reply] III, I, II
(III: 16 nM, I: 55 nM, II: 130 nM)

P. CC[C@@H](C)[C@H](NC(=O)OC(C)(C)C)C(=O)N[C@H](C(=O)N[C@@H](CC(C)C)C(O)CC(=O)N(C)CC(C)C)[C@H](C)CC (some centres not stated)
Q. CCOC(=O)CC(O)[C@H](CC(C)C)NC(=O)[C@@H](NC(=O)[C@@H](NC(=O)OC(C)(C)C)[C@@H](C)CC)[C@@H](C)CC (some centres not stated)
[ask] Min IC50? P | Q Reply with the label of the item you choose.
[reply] P
(P: 58 nM, Q: 160 nM)

P. CC[C@H](C)[C@H](NC(=O)[C@H](CC1CCCCC1)NS(=O)(=O)N1CCN(C)CC1)C(=O)N[C@@H](Cc1ccc2ccccc2c1)[C@@H](O)[C@@H](O)CC(C)C
Q. CCC(C)[C@H](NC(=O)OC(C)(C)C)C(=O)N[C@H](C(=O)N[C@@H](CC(C)C)C(O)CC(=O)NCCC(=O)O)C(C)CC (some centres not stated)
[ask] Min IC50? P | Q Reply with the label of the item you choose.
[reply] P
